assay: chemical genetic growth profiling, strain panel (AID 1159580);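 also: tested at 20 µM; growth read once vehicle control cultures reached saturation at 30 °C; 1 = growth at the plate median or of vehicle wells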; conditions: S. cerevisiae deletion strains, growth OD, locus YPR167C, strain met16, active compounds read low
In all, about 5,500 compounds went through this assay and about 2,000 (36%) were called active. Roughly 18% stayed inconclusive and do not appear here. The list shows a part of the results.
Field: normalized growth. Provide a value for each of the compounds that follow.
Answer as a number with no unit attached.

Noted for `Cc1cc(C)nc(NS(=O)(=O)c2ccc(N)cc2)n1` : its normalized growth reads 0.971

Note to self: normalized growth recorded for `C[C@H]1C(=O)O[C@@H]2CCN3CC=C(COC(=O)[C@](C)(O)[C@]1(C)O)[C@H]23` was 0.989

Field normalized growth (entry `CC(=O)N[C@@H](CC(=O)O)C(=O)O` ) reads 1.01

// field: normalized growth; key: `COc1ccc(Cc2nccc3cc(OC)c(OC)cc23)cc1OC` ; value = 0.991

Given item `O=[N+]([O-])/N=C1/NCCN1Cc1ccc(Cl)cc1` , the value recorded as its normalized growth is 0.996

normalized growth recorded for this compound, CC(C)CCCC(C)C1CCC2C3CCC4CC(=O)CCC4(C)C3CCC12C (stereo unspecified) , is 1.02

Sample `CCCCCN=C(N)N/N=C\c1c[nH]c2ccc(OC)cc12` ; normalized growth observed: 1.02

Looking up CC(C(=O)O)c1ccc(N2Cc3ccccc3C2=O)cc1 (stereo unspecified) , I found its normalized growth recorded as 0.982

Kindly note the recorded normalized growth for `CCOc1ccc(Cc2nccc3cc(OCC)c(OCC)cc23)cc1OCC` , which is 0.97

The compound identified as `CN1CCN(C(c2ccccc2)c2ccccc2)CC1` registered its normalized growth at 0.958

Measured normalized growth of C[C@]12CCC3C(CC[C@H]4CC(=O)CC[C@]34C)C1CCC2=O (stereo partly specified) : 0.921

* * *

assay: chemical genetic growth profiling, strain panel (AID 1159580); conditions: S. cerevisiae deletion strains, growth OD, locus YER167W, strain BCK2, active compounds read low
Out of some 5,500 compounds screened, about 2,000 (36%) were called active. Inconclusive results (about 18%) are left out. Some of the results follow.
Assign normalized growth to each entry below.
Lab note: record the figure alone, no unit after it.

Record summary for `COc1cc2c(cc1-c1coc3c4c(c(OC)cc3c1=O)OC(C)(C)C=C4)OCO2` : reported normalized growth = 1.01

Just so you know, measured normalized growth for `CCCCC(=O)N(Cc1ccc(-c2ccccc2-c2nn[nH]n2)cc1)[C@H](C(=O)O)C(C)C` came out at 0.954

According to the records, this compound `CC1(C)C=Cc2c(cc3occ(-c4ccc5c(c4)OCO5)c(=O)c3c2O)O1` displays normalized growth of 0.967

The compound listed as `O=c1c(-c2ccc3c(c2)OCO3)coc2cc(O)ccc12` has a reported normalized growth of 0.983

// `CCCc1nc(C(C)(C)O)c(C(=O)OCc2oc(=O)oc2C)n1Cc1ccc(-c2ccccc2-c2nn[nH]n2)cc1` : normalized growth value = 0.99

Item: `COc1ccc2c(=O)c(-c3cc4c(cc3OC)OCO4)coc2c1` | normalized growth: 1.02

* * *

Assign normalized growth to each entry below.
test: chemical genetic growth profiling, strain panel (AID 1159580); conditions: S. cerevisiae deletion strains, growth OD, locus YLR268W, strain sec22, active compounds read low
Hit rate of the full screen: of about 5,500 compounds, about 2,000 (36%) were called active. Inconclusive results (about 18%) are left out. Some of the results follow.
Quick one: just the number, no unit, thanks!

The measured normalized growth associated with `Nc1ncnc2c1ncn2[C@@H]1O[C@H](CO)[C@@H](O)[C@@H]1O` reads 1.04

`COc1ccc2c(=O)c(CC(=O)O)coc2c1` yielded normalized growth of 1.02

Input CC(=O)OC1CCC2C3CCc4cc(O)ccc4C3CCC12C (stereo unspecified) . Output normalized growth: 0.97

Lookup result for `O=C(O)c1cc2cc(Cl)ccc2[nH]1` ; measured normalized growth: 1

// recorded normalized growth for `NCCS` : 1.01

The molecule listed as `Cc1cc(C)nc(NS(=O)(=O)c2ccc(N)cc2)n1` has a reported normalized growth of 0.952

The recorded normalized growth for entry CC(=O)Oc1ccc2c(c1)CCC1C2CC[C@@]2(C)C1CC[C@@H]2OC(C)=O (stereo partly specified) equals 0.986

molecule CCCCC(=O)O[C@H]1CCC2C3CCc4cc(O)ccc4C3CC[C@@]21C (stereo partly specified) , normalized growth observed: 0.982

The value of normalized growth measured for the molecule CC(=O)O[C@@H]1CC2C(C)(C)C(=O)[C@@H]3O[C@@H]3[C@]2(C)C2CC[C@]3(C)C(=CC(=O)O[C@H]3c3ccoc3)[C@@]21C (stereo partly specified) turned out to be 0.948

Value of measured normalized growth for the entry `CC(=O)N[C@@H](CC(=O)O)C(=O)O` : 1.02

CC(C(=O)O)c1ccc(N2Cc3ccccc3C2=O)cc1 (stereo unspecified) yielded normalized growth of 0.997

* * *

experiment: chemical genetic growth profiling, strain panel (AID 1159580);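 also: tested at 20 µM; growth read once vehicle control cultures reached saturation at 30 °C; 1 = growth at the plate median or of vehicle wells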; conditions: S. cerevisiae deletion strains, growth OD, locus YHR079C, strain IRE1, active compounds read low
Among all 5,500 compounds or so, about 2,000 (36%) were called active. Not shown: some 18% with an inconclusive outcome. Some of the results follow.
Ranges used to classify normalized growth: one (below 0.9), two (0.9 to below 1), three (1 or more)

[Q] For the record `Nc1ccc(N2CCN(c3ccc(C(F)(F)F)cn3)CC2)nc1` , report the class its normalized growth corresponds to.
[A] two

[Q] Record CC(O)Cn1cnc2c1c(=O)n(C)c(=O)n2C (stereo unspecified) — which class?
[A] three

[Q] Hello team, could you let me know which band the following compound falls into: `COc1cc(OC)c2c(=O)c(-c3ccc4c(c3)OCO4)coc2c1`
[A] three

[Q] Kindly identify the class of `CCOc1ccc(Cc2nccc3cc(OCC)c(OCC)cc23)cc1OCC` .
[A] two

[Q] Which class is correct for the following compound? `O=C(Nc1ccc(OC(F)(F)F)cc1)Nc1cncc(C(F)(F)F)c1`
[A] one

[Q] Place this compound in its band: CCCC(=O)Nc1ncnc2c1ncn2C1O[C@@H]2COP(=O)(O)O[C@H]2[C@H]1OC(=O)CCC (stereo partly specified)
[A] three

* * *

experiment: chemical genetic growth profiling, strain panel (AID 1159580);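 also: tested at 20 µM; growth read once vehicle control cultures reached saturation at 30 °C; 1 = growth at the plate median or of vehicle wells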; conditions: S. cerevisiae deletion strains, growth OD, locus YOL078W, strain AVO1, active compounds read low
About 2,000 (36%) of roughly 5,500 compounds were called active. Inconclusive results (about 18%) are left out. The list shows a part of the results.
Label class 1 when normalized growth is strictly below 0.9; at or above that, label class 0.

[Q] Please let me know if `CC(/C=C/c1ccccc1)=N/OC(=O)c1ccccc1Cl` shows normalized growth below 0.9.
[A] class 0

[Q] Would you kindly verify if normalized growth of `Cc1oc(-c2ccc(Cl)cc2)cc1C(=O)N1CCN(c2ccc(C(F)(F)F)cn2)CC1` is strictly less than 0.9?
[A] class 0

[Q] Dear colleague, could you confirm whether normalized growth of `O=C(c1ccc(Cl)cc1)N1CCN(c2ccc(C(F)(F)F)cn2)CC1` falls below 0.9? Thanks.
[A] class 0

[Q] Lab log: compare recorded normalized growth with 0.9; is it strictly lower for `N#CC(C#N)=NNc1ccc(C(F)(F)F)cc1` ?
[A] class 1

[Q] Consider the compound `N#C/C(=N/Nc1ccc(C(F)(F)F)cc1)C(=O)C1CC1` . Is its normalized growth strictly less than 0.9?
[A] class 0

[Q] Identify whether the compound `CN(C)c1nc(=S)ss1` records normalized growth below 0.9.
[A] class 1

[Q] Strictly below 0.9 in normalized growth? CCC1(c2ccccc2)OC(c2cc(Cl)cc(Cl)c2O)Nc2ccccc21 (configuration not stated)
[A] class 0

[Q] Quick check: normalized growth of `Fc1ccc(Nc2nc(-c3ccc(F)c(F)c3)cs2)c(F)c1` under 0.9?
[A] class 1

[Q] Find out if reported normalized growth for `N#C/C(=N/Nc1ccc(Cl)cc1)C(N)=S` is less than 0.9
[A] class 1

[Q] Is it true that normalized growth reported for `Nc1ccc(N2CCN(c3ccc(C(F)(F)F)cn3)CC2)nc1` is less than 0.9?
[A] class 0

* * *

assay: chemical genetic growth profiling, strain panel (AID 1159580);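 also: tested at 20 µM; growth read once vehicle control cultures reached saturation at 30 °C; 1 = growth at the plate median or of vehicle wells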; conditions: S. cerevisiae deletion strains, growth OD, locus YGR052W, strain FMP48
In all, about 5,500 compounds went through this assay and about 2,000 (36%) were called active. Another 18% or so got no clear call; they are omitted. No stated cut-off is given here; in the data, active means normalized growth mostly below about 0.91 (no sharp cut-off); inconclusive means no clear call, values can overlap the other calls; inactive means mostly above about 0.92. This is one part of the list.
Parameter call: string, one of active, inactive

[Q] Given `CN(C)c1nc(=S)ss1` , state the outcome it received in this test.
[A] active

[Q] What was the test verdict on `N#C/C(=N/Nc1ccc(C(F)(F)F)cc1)C(=O)C1CC1` ?
[A] inactive

[Q] Record lookup: outcome of this test for `Oc1ccc(-n2nnnc2SCc2ccc(OC(F)(F)F)cc2)cc1` ?
[A] active

[Q] Identify the outcome logged in this assay for the molecule shown: `N#CC(C#N)=NNc1ccc(C(F)(F)F)cc1`
[A] active

[Q] What classification did `N#CC(C#N)=NNc1cc(C(F)(F)F)ccc1OCC(F)(F)F` end up with in this test?
[A] active

[Q] Query: recorded result category for `O=S(=O)(Nc1ccc(-n2nc(C(F)(F)F)cc2-c2cccs2)cc1)c1ccc(F)cc1` in this test
[A] inactive

[Q] Returns: the outcome recorded for CCC1(c2ccccc2)OC(c2cc(Cl)cc(Cl)c2O)Nc2ccccc21 (stereo unspecified) in this assay.
[A] inactive

[Q] Hello, I am checking results. What call was entered for `COc1ccc(-c2cc(NS(=O)(=O)c3cccc(F)c3)n(-c3ccc(Cl)c(Cl)c3)n2)cc1` ?
[A] inactive

[Q] // param item: `O=S(=O)(Nc1cc(-c2cccs2)nn1-c1ccc(I)cc1)c1cccc(F)c1` ; yields the recorded call
[A] inactive

[Q] Just curious, what result did CC1CCc2c(sc3ncnc(Sc4ccccc4)c23)C1 (stereo unspecified) get here?
[A] inactive

[Q] So what was the verdict on `CC(/C=C/c1ccccc1)=N/OC(=O)c1ccccc1Cl` in this test?
[A] inactive

This collection of values is drawn from PubChem BioAssay AID1159580.
